Measured Plant response rating, Cupgrass, Woolly accompanies every entry in the list below.
- Test system: woolly cupgrass
- experimental_details: Test C pre-/postemergence herbicide test
- Format: in vivo, Eriochloa villosa
- test_parameters: 500 g ai/ha; scale 0 to 100 (0 no effect, 100 complete control); visual, 12 to 14 days; preemergence
Number, no unit, nothing else.

{"compound": "Cc1nn(C(C)(C)C)nc1C(=O)Nc1cccc(C(=O)N(C)C)c1 [Compound 391]", "recorded_value": 100}

Req: // fetch Plant response rating, Cupgrass, Woolly given entry CCN1N=C(C(C)(C)C)CC1C(=O)Nc1cc(C(=O)N2CCCC2)ccc1F (racemic) [Compound 309]
Resp: 100

Req: // fetch Plant response rating, Cupgrass, Woolly given entry CCNC(=O)c1ccc(F)c(N(C(C)=O)C(=O)c2cc(C(C)(C)C)nn2CC)c1 [Compound 399]
Resp: 95

Req: // fetch Plant response rating, Cupgrass, Woolly given entry CCc1nn(C(C)(C)CC)nc1C(=O)Nc1cccc(C(=O)N(C)C)c1 [Compound 372]
Resp: 100

* * *

- System: pigweed
- experimental_details: Test B pre-/postemergence herbicide test
- Type: in vivo, Amaranthus retroflexus
- test_parameters: preemergence, 125 g ai/ha; 0 to 100 scale, 0 is no effect, 100 is complete control
Measured Plant response rating, Pigweed accompanies every entry in the list below.

{"structure_smiles": "CC(=NO)c1ccnc(NC(=O)c2cc(C(C)(C)C)nn2C)n1", "Plant response rating, Pigweed": 0}
{"structure_smiles": "CCn1nc(C(C)(C)C)cc1C(=O)Nc1ccc(C)c(C(=O)OC(C)C)c1", "Plant response rating, Pigweed": 0}
{"structure_smiles": "CCn1nc(C(C)(C)C)cc1C(=O)Nc1cccc(C#N)c1", "Plant response rating, Pigweed": 90}
{"structure_smiles": "C=CCOC(=O)c1cccc(NC(=O)c2cc(C(C)(C)C)nn2CC)c1C", "Plant response rating, Pigweed": 0}
{"structure_smiles": "CCN(CC)C(=O)c1cccc(NC(=O)c2cc(C(C)(C)C)nn2CC(F)(F)F)c1", "Plant response rating, Pigweed": 0}

Req: // fetch Plant response rating, Pigweed given entry `CCn1nc(C(C)(C)C)cc1C(=O)Nc1cccc2c1CNC2=O`
Resp: 0

Req: // fetch Plant response rating, Pigweed given entry `CCOC(=O)c1cccc(NC(=O)c2cc(C(C)(C)C)nn2CCF)c1`
Resp: 0

Req: // fetch Plant response rating, Pigweed given entry `CCCn1nc(C(C)(C)C)cc1C(=O)Nc1cccc(C(=O)NCC)c1`
Resp: 90

Req: // fetch Plant response rating, Pigweed given entry `CCn1nc(C(C)(C)C)cc1C(=O)Nc1cccc(C(C)=NO)c1`
Resp: 90

* * *

- System: wheat
- experimental_details: Test B postemergence herbicide test
- Assay type: in vivo, Triticum aestivum
- Parameters: key: 0 = no effect, 100 = complete control
- test_parameters: 500 g ai/ha; scale 0 to 100, 0 no effect, 100 complete control; preemergence
- Protocol: At the same time, plants selected from these crop and weed species and also blackgrass (Alopecurus myosuroides Huds.), wheat (Triticum aestivum L.) and wild oat (Avena fatua L.) were treated with postemergence applications of test chemicals formulated in the same manner. […] Treated plants and controls were maintained in a greenhouse for 13 to 15 days, after which time all species were compared to controls and visually evaluated. […]
readout: Wheat plant response rating
Number, no unit, nothing else.

Solved cases below.
{"structure_smiles": "C=CCN(C(C)=O)C(=O)c1ccc(F)c(NC(=O)c2cc(C(C)(C)C)nn2CC)c1", "Wheat plant response rating": 70}
{"structure_smiles": "C#CCOc1cccc(NC(=O)c2cc(C(C)(C)C)nn2CC)c1", "Wheat plant response rating": 60}

Req: // fetch Wheat plant response rating given entry `CCc1nn(C(C)(C)C)nc1C(=O)Nc1cccc(C(=O)NC2CC2)c1`
Resp: 90

Req: // fetch Wheat plant response rating given entry `CCc1nn(C(C)(C)CC)nc1C(=O)Nc1cccc(C(=O)N2CC=CC2)c1`
Resp: 0

Req: // fetch Wheat plant response rating given entry `CCNC(=O)c1cccc(NC(=O)c2nn(C(C)(C)CC)nc2CC)c1`
Resp: 90
